Source: the supplement of paper PMC10567573

B1: ZNF232 (parent)
chain: FPKSEQVYLHFLSVVTEDGPEPKD

# Variants of: B1
# EXPERIMENTAL PROTOCOL: protein stability index of a GFP-peptide fusion (GPS, HEK-293T) (PSI 1-6); higher = more stable;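 also: lentivirally expressed fusions sorted by FACS into six bins by GFP to DsRed ratio, PSI derived from sequencing read proportions per bin multiplied by bin number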
# DETAILS: c terminus: a fixed tail appended
Please respond with reported protein stability index for every item in the list.
The response must contain the number and no unit.

// Input: FPKSEQVYLHFLSVVTEDGAEPKD . Output its protein stability index only.
3.42

// Input: FPKSEQVYLHTLSVVTEDGPEPKD . Output its protein stability index only.
2.27

// Input: FPKSEQVYLMFLSVVTEDGPEPKD . Output its protein stability index only.
2.65

// Input: FPKSEQVYLHFLSVVTESGPEPKD . Output its protein stability index only.
1.33

// Input: HPKSEQVYLHFLSVVTEDGPEPKD . Output its protein stability index only.
3.88

// Input: FPKSEQVYMHFLSVVTEDGPEPKD . Output its protein stability index only.
1.29

// Input: FPKSEQVYLHFLSVVTEDGPERKD . Output its protein stability index only.
1.9

// Input: FPKSEQVYQHFLSVVTEDGPEPKD . Output its protein stability index only.
2.78

// Input: FPKSEQVYLVFLSVVTEDGPEPKD . Output its protein stability index only.
1.94

// Input: FPKSEQVYLHFLSVVWEDGPEPKD . Output its protein stability index only.
1.89

// Input: FPMSEQVYLHFLSVVTEDGPEPKD . Output its protein stability index only.
2.69

// Input: FPKSEQVYRHFLSVVTEDGPEPKD . Output its protein stability index only.
2.11

// Input: FPKSEQVYLHFLSVVTEDGPEEKD . Output its protein stability index only.
1.94

// Input: FPKSFQVYLHFLSVVTEDGPEPKD . Output its protein stability index only.
2.35

// Input: FPKSEIVYLHFLSVVTEDGPEPKD . Output its protein stability index only.
2.23

// Input: FPKSEQVYLHFLSVVTEDGREPKD . Output its protein stability index only.
2.15
